Assay: folding enthalpy; higher = less favourable; fluorescence melt of hairpins on a sequencing array, two-state fit
Details: sodium 0.088 M
experimentalEndpoint: folding enthalpy (kcal/mol)
Give bare numbers, in kcal/mol.

Solved cases below.
[
  {
    "seq": "GCGGCGACCCGC ((((....))))",
    "folding enthalpy / kcal/mol": -15.4
  },
  {
    "seq": "GATACAGGAAACTGTATC (((((((....)))))))",
    "folding enthalpy / kcal/mol": -42.9
  },
  {
    "seq": "GATTTAGCGAAAGCTATC (((..(((....))))))",
    "folding enthalpy / kcal/mol": -10.5
  }
]

Could you report folding enthalpy for every entry in the following list?
1. GATCAGTGGGCTGATC ((((((....))))))
2. GATCCTCCTAGGATC ((((((...))))))
3. GCGGCATTCCGC ((((....))))

-48.6
-39.2
-23.7

Could you report folding enthalpy for every entry in the following list?
1. GATCGGATCGCCGATC ((((((....))))))
2. GCTGTATCGAAAGATAGC (((..(((....))))))

1: -32.2; 2: -18.4

Could you report folding enthalpy for every entry in the following list?
1. GAACACGGAAACGTATTC (((.(((....))).)))
2. GATCCCCTCTGGGATC ((((((....))))))
3. GATCAGAGTCCTGATC ((((((....))))))

[-22.6, -29, -38.2]
